Provenance of the data: paper PMC5940854

- Test system: E. coli clinical isolates
- assay-overview: MIC on panel of E. coli clinical isolates
- Format: cell-based
- applied-conditions: strain SEC062
measured-attribute: log10 of MIC (log10 of the value in µg/mL)

# molecule, assay-value
records = [
    ("COc1cc(-c2csc(NC(=O)c3ccc([N+](=O)[O-])s3)n2)ccc1Cl", 0.00),
    ("C[C@@H](O)[C@H]1C(=O)N2C(C(=O)O)=C(S[C@@H]3CN[C@H](C(=O)N(C)C)C3)[C@H](C)[C@H]12 [meropenem, reference compound]", -1.52),
    ("O=C1CN(/N=C/c2ccc([N+](=O)[O-])o2)C(=O)N1 [nitrofurantoin, reference compound]", 1.30),
    ("O=C(Nc1nc(-c2ccc(F)cc2F)cs1)c1ccc([N+](=O)[O-])s1", 0.00),
    ("CNC(C)C1CCC(N)C(OC2C(N)CC(N)C(OC3OCC(C)(O)C(NC)C3O)C2O)O1 (stereo not drawn) [gentamicin, reference compound]", 0.90),
    ("O=C(Nc1nc(-c2ccc(F)cc2)cs1)c1ccc([N+](=O)[O-])s1", 0.30),
]

====

- System: E. coli ∆nfsA + ∆nfsB
- assay-overview: microbe, parasite or virus in culture
- Assay type: cell-based
- applied-conditions: Escherichia coli, read-out: MIC ∆nfsA + ∆nfsB
Reported MIC values follow for various compounds

# compound, MIC
rows = [
    ("O=C(Nc1nc(-c2ccc(F)cc2F)cs1)c1ccc([N+](=O)[O-])s1", "> 40 µg/mL"),
    ("O=C1CN(/N=C/c2ccc([N+](=O)[O-])o2)C(=O)N1 [nitrofurantoin, reference compound]", "20 µg/mL"),
    ("Cc1sc(NC(=O)c2ccc([N+](=O)[O-])s2)nc1-c1ccccc1", "> 40 µg/mL"),
    ("N#Cc1ccc(-c2csc(NC(=O)c3ccc([N+](=O)[O-])s3)n2)cc1", "> 40 µg/mL"),
    ("O=C(Nc1nc(-c2ccc(F)cc2)cs1)c1ccc([N+](=O)[O-])s1", "> 40 µg/mL"),
    ("COc1cc(-c2csc(NC(=O)c3ccc([N+](=O)[O-])s3)n2)ccc1Cl", "> 40 µg/mL"),
]

====

Reported NfsA activity (rate of compound conversion) values follow for various molecules
- tested-on: NfsA (Escherichia coli, UniProt P17117)
- Construct: His-tag; made in house; host or cells: E. coli BL21(DE3), pET28a (pET-nfsA)
- Sequence (P17117 whole entry): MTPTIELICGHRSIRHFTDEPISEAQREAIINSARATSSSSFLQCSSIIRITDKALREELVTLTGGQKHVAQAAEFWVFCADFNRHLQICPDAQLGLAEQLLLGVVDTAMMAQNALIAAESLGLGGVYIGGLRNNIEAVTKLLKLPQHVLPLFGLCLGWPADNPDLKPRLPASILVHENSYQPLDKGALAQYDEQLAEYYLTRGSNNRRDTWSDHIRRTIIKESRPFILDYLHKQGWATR
- assay-overview: Nitroreductase activity assay, NfsA
- Type: biochemical, E. coli
- applied-conditions: 20 μM compound, 40 μM NADPH, 10 nM NfsA; slope of initial velocity
measured-attribute: NfsA activity (rate of compound conversion) (µM/min)

# molecule, assay-value
data = [
    ("Cc1sc(NC(=O)c2ccc([N+](=O)[O-])s2)nc1-c1ccccc1 [compound 7]", 0.64),
    ("COc1cc(-c2csc(NC(=O)c3ccc([N+](=O)[O-])s3)n2)ccc1Cl [compound 20]", 0.61),
    ("O=C(Nc1nc(-c2ccc(F)cc2)cs1)c1ccc([N+](=O)[O-])s1 [compound 15]", 2.05),
    ("O=C(Nc1nc(-c2ccc(F)cc2F)cs1)c1ccc([N+](=O)[O-])s1 [compound 12]", 2.30),
    ("O=C1CN(/N=C/c2ccc([N+](=O)[O-])o2)C(=O)N1 [nitrofurantoin, reference compound]", 3.58),
    ("N#Cc1ccc(-c2csc(NC(=O)c3ccc([N+](=O)[O-])s3)n2)cc1 [compound 14]", 0.20),
]
